assay: Octanol-water partition coefficient, log P of the compound by HPLC analysis; assay type: physicochemical; conditions: read-out: logP
Could you mark each record condition met if its logP falls strictly under 3, and condition not met if it equals or exceeds it?

>>> df
                                   compound        label_class
0  CC(C)/C=C/c1c(O)cc(/C=C/C2=CC(=O)OC2CC(=O)O)cc1O (stereo not given)      condition met
1  Oc1ccc(/C=C/c2cccc(O)c2)cc1 [(E)-3,4'-STILBENDIOL]      condition met
2  COc1cc(/C=C/c2ccc(O)cc2)cc(OC)c1 [PTEROSTILBENE]  condition not met
3  CC(C)/C=C/c1c(O)cc(/C=C/c2ccc(O)cc2)cc1O [ARACHIDIN-3]      condition met
4  Oc1ccc(/C=C/c2cc(O)cc(O)c2)cc1 [RESVERATROL]      condition met
5  COc1ccc(/C=C/c2cc(OC)cc(OC)c2)cc1 [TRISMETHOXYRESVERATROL]  condition not met
6  CC(C)=CCc1c(O)cc(/C=C/c2ccc(O)cc2)cc1O [ARACHIDIN-2]      condition met
7  COc1cc(O)cc(/C=C/c2ccccc2)c1 [PINOSYLVIN METHYL ETHER]  condition not met
8  COc1cc(/C=C/c2ccccc2)cc(OC)c1 [3,5-O-DIMETHYLPINOSYLVIN]  condition not met
9  Oc1cc(O)cc(/C=C/c2ccccc2)c1 [PINOSYLVIN]      condition met

###

test: Octanol-water partition coefficient, log P of the compound by HPLC analysis; format: physicochemical
result type: logP

                                   compound  reported_result
0  CC(C)=CCC/C(C)=C/Cc1c(O)cc(/C=C/c2ccc(O)cc2O)cc1O             3.29
1  CC(C)(O)C(O)Cc1c(O)cc(/C=C/c2ccccc2)cc1O (stereo not drawn)             2.59
2  Oc1cccc(/C=C/c2ccccc2)c1 [(E)-3-STILBENOL]             3.22
3       CC(C)=CCc1c(O)cc(/C=C/c2ccccc2)cc1O             3.46
4                 COc1cccc(CCc2ccc(O)cc2)c1             3.07
5  CC(C)/C=C/c1c(O)cc(/C=C/c2ccc(O)c(O)c2)cc1O             2.44
6  COc1ccc(/C=C/c2cc(O)cc(O[C@@H]3O[C@H](CO)[C@@H](O)[C@H](O)[C@H]3O)c2)cc1O             0.74
7  CC(C)(O)C(O)Cc1c(O)cc(/C=C/c2ccc(O)cc2)cc1O (stereo not drawn)             1.59

###

experiment: Octanol-water partition coefficient, log P of the compound by HPLC analysis; type: physicochemical
Could you mark each record class 1 if its logP falls strictly under 3, and class 0 if it equals or exceeds it?

>>> df
                                   compound  label_class
0  COc1cccc(/C=C/c2ccc(O)cc2)c1 [(E)-5-METHOXY-4'-STILBENOL]      class 0
1                     Oc1cccc(CCc2ccccc2)c1      class 0
2  CC(C)(O)C(O)Cc1cc(/C=C/c2cc(O)cc(O)c2)ccc1O (stereo not given)      class 1
3  CC1(C)C=Cc2c(O)cc(/C=C/c3ccc(O)cc3)cc2O1      class 0
4     CC(C)/C=C/c1c(O)cc(/C=C/c2ccccc2)cc1O      class 0
